Origin of values: paper PMC3794980

Give pIC50 for every item shown.
- STUDY TARGET: DRB4*0101 (Homo sapiens, UniProt P01903+P13762, G164S)
- ASSAY TEXT: biochemical
- Format: binding
Please report pIC50 as the negative decimal logarithm of the molar concentration, giving only the number.

pIC50 of CC[C@H](C)[C@H](NC(=O)CNC(=O)[C@H](CO)NC(=O)[C@H](CCCCN)NC(=O)[C@H](CCCCN)NC(=O)[C@H](Cc1ccc(O)cc1)NC(=O)[C@H](CC(C)C)NC(=O)[C@H](CC(=O)O)NC(=O)[C@H](Cc1ccccc1)NC(=O)[C@H](CCC(=O)O)NC(=O)[C@@H](N)CCCCN)C(=O)N[C@H](C(=O)N[C@@H](CCC(=O)O)C(=O)N[C@H](C(=O)N[C@@H](CC(=O)O)C(=O)N[C@@H](CCCNC(=N)N)C(=O)N[C@H](C(=O)O)[C@@H](C)O)C(C)C)[C@@H](C)O , assay on DRB4*0101 (Homo sapiens, UniProt P01903+P13762, G164S), is 5.46

pIC50 of CC[C@H](C)[C@H](NC(=O)[C@H](CCC(N)=O)NC(=O)[C@@H](N)CCCCN)C(=O)N[C@@H](C)C(=O)N[C@@H](CC(N)=O)C(=O)N[C@@H](CCC(=O)O)C(=O)N[C@@H](CC(C)C)C(=O)N[C@@H](CC(N)=O)C(=O)N[C@@H](Cc1ccc(O)cc1)C(=O)N[C@H](C(=O)N[C@@H](CC(C)C)C(=O)N[C@@H](Cc1c[nH]c2ccccc12)C(=O)N[C@@H](CCC(=O)O)C(=O)N[C@@H](CC(N)=O)C(=O)N[C@@H](CC(N)=O)C(=O)O)[C@@H](C)CC , assay on DRB4*0101 (Homo sapiens, UniProt P01903+P13762, G164S), is 6.22

pIC50 of CC[C@H](C)[C@H](NC(=O)[C@H](CO)NC(=O)[C@H](C)N)C(=O)N[C@@H](C)C(=O)N[C@@H](C)C(=O)N[C@@H](CCCNC(=N)N)C(=O)NCC(=O)N[C@@H](Cc1ccc(O)cc1)C(=O)N[C@H](C(=O)N[C@@H](CO)C(=O)N[C@H](C(=O)N[C@@H](CCCNC(=N)N)C(=O)N[C@H](C(=O)NCC(=O)N[C@@H](CCSC)C(=O)O)C(C)C)[C@@H](C)O)[C@@H](C)CC , assay on DRB4*0101 (Homo sapiens, UniProt P01903+P13762, G164S), is 5.57

pIC50 of CC[C@H](C)[C@H](N)C(=O)N[C@H](C(=O)N[C@H](C(=O)NCC(=O)N[C@H](C(=O)NCC(=O)N[C@@H](CC(=O)O)C(=O)N[C@@H](CC(N)=O)C(=O)N[C@@H](C)C(=O)N[C@@H](CC(C)C)C(=O)N[C@@H](CCCCN)C(=O)N[C@H](C(=O)N[C@@H](CC(N)=O)C(=O)N[C@@H](Cc1c[nH]c2ccccc12)C(=O)N[C@@H](Cc1ccc(O)cc1)C(=O)O)[C@@H](C)CC)[C@@H](C)CC)[C@@H](C)CC)C(C)C , assay on DRB4*0101 (Homo sapiens, UniProt P01903+P13762, G164S), is 5.91

###

- STUDY TARGET: DRB1*0701 (Homo sapiens, UniProt P01903+P01911, A100R/A102G/A103Q/D57E/D86V/E43K/F76Y/K127E/L162R/M171V/P40G/Q125H/Q99D/R33Q/R42Y/R54Q/S133A/S66F/T210M/V115G/Y107V/Y59L/Y89S)
- ASSAY TEXT: biochemical
- Assay type: binding
ENDPOINT NAME: pIC50
Please report pIC50 as the negative decimal logarithm of the molar concentration, giving only the number.

Lab note: measured pIC50 of CC[C@H](C)[C@H](NC(=O)[C@H](C)NC(=O)[C@H](CC(N)=O)NC(=O)[C@H](CO)NC(=O)[C@H](C)NC(=O)[C@H](CC(C)C)NC(=O)[C@H](CCCNC(=N)N)NC(=O)[C@H](CC(C)C)NC(=O)[C@H](CC(=O)O)NC(=O)[C@H](CCCNC(=N)N)NC(=O)[C@@H](N)CCCNC(=N)N)C(=O)N[C@@H](CS)C(=O)N[C@@H](CO)C(=O)N[C@@H](C)C(=O)N[C@H](C(=O)N1CCC[C@H]1C(=O)N[C@H](C(=O)O)C(C)C)C(C)C was 6.92

Lab note: measured pIC50 of CC[C@H](C)[C@H](NC(=O)[C@H](CCCCN)NC(=O)[C@H](C)NC(=O)[C@H](CCCCN)NC(=O)CNC(=O)[C@H](Cc1c[nH]c2ccccc12)NC(=O)[C@@H](N)[C@@H](C)O)C(=O)N[C@H](C(=O)N[C@H](C(=O)N[C@@H](C)C(=O)N[C@@H](CCC(=O)O)C(=O)N[C@H](C(=O)N[C@@H](CCC(N)=O)C(=O)N[C@@H](CC(N)=O)C(=O)N[C@@H](CO)C(=O)O)[C@@H](C)O)[C@@H](C)O)C(C)C was 5.17

Lab note: measured pIC50 of CC[C@H](C)[C@H](NC(=O)[C@H](CCC(=O)O)NC(=O)CNC(=O)[C@@H](NC(=O)[C@@H](NC(=O)[C@@H](NC(=O)[C@H](CCC(N)=O)NC(=O)[C@H](Cc1ccccc1)NC(=O)[C@@H](NC(=O)CNC(=O)[C@@H]1CCCN1C(=O)[C@H](CCSC)NC(=O)[C@@H](NC(=O)[C@H](CCC(N)=O)NC(=O)[C@@H](N)Cc1ccccc1)[C@@H](C)O)[C@@H](C)O)[C@@H](C)O)[C@@H](C)O)[C@@H](C)O)C(=O)O was 5.99

Lab note: measured pIC50 of CC(C)C[C@H](NC(=O)[C@H](CCC(=O)O)NC(=O)[C@H](CCCCN)NC(=O)[C@@H](N)CCCNC(=N)N)C(=O)N[C@@H](CC(C)C)C(=O)N[C@H](C(=O)N[C@H](C(=O)N[C@@H](Cc1ccccc1)C(=O)N[C@@H](CCCCN)C(=O)N[C@@H](CC(N)=O)C(=O)N[C@@H](C)C(=O)N[C@@H](Cc1c[nH]cn1)C(=O)N[C@@H](C)C(=O)N[C@@H](CCCCN)C(=O)N[C@@H](CCCCN)C(=O)O)[C@@H](C)O)C(C)C was 5.42
